Listing of entries alongside the reported melting point.

Known results for compounds:
stdin: Which melting point reading was recorded for the compound `FC(F)(F)c1n[nH]c2c1nc(-c1ccccc1)c1ccccc12` ?
stdout: 264 to 265 °C

stdin: melting point for `CCc1n[nH]c2c1nc(-c1cccnc1)c1ccccc12` ?
stdout: 219 to 220 °C

stdin: Give the measured melting point of `Cc1n[nH]c2c1nc(-c1ccccc1)c1cc(Br)ccc12` .
stdout: 299 to 300 °C

Read the next record carefully.
stdin: I would be grateful if you could share the reported melting point for `CCc1n[nH]c2c1nc(-c1ccccc1)c1ccccc12` .
stdout: 250 to 251 °C

Where these numbers come from: patent US7132428B2
